target: Vascular endothelial growth factor receptor 3 (Homo sapiens)
Sequence (P35916 whole entry): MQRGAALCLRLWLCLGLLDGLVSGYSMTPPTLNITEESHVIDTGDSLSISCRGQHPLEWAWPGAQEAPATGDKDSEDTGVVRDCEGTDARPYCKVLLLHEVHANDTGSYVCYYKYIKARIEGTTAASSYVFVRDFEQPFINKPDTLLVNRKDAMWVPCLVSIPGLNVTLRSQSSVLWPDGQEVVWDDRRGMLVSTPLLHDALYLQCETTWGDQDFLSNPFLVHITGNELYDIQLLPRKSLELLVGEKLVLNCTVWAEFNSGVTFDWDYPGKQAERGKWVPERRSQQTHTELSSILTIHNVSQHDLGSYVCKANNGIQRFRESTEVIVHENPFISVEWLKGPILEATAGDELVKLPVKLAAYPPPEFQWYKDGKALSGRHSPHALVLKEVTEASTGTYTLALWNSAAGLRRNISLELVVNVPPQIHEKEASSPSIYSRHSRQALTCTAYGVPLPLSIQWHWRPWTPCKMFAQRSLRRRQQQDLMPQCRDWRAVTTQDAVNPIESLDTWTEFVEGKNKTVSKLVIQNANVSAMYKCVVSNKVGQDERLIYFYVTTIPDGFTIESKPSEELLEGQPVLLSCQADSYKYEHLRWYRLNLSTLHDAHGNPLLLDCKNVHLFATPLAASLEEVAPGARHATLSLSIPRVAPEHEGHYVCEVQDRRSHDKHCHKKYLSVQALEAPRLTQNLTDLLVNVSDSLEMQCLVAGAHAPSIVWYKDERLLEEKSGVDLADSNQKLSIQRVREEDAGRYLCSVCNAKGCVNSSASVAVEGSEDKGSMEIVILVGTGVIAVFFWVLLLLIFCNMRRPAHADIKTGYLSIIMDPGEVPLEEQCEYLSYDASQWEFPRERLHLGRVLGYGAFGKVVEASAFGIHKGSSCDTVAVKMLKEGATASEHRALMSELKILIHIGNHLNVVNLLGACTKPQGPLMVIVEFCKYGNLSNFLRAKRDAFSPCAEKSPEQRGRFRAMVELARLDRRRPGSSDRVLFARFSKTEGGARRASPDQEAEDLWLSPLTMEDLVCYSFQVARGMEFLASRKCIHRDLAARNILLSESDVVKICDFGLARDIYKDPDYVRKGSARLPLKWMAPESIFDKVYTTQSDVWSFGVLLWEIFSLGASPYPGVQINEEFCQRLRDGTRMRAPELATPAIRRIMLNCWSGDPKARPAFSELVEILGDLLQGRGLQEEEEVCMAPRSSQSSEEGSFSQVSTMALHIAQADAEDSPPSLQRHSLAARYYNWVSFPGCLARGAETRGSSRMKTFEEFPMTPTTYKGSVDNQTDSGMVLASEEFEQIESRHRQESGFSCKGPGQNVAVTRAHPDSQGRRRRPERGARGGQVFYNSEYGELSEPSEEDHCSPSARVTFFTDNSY
Measure: IC50
Put your answer as a value accompanied by its unit after it.

Identify measured IC50 obtained with Vascular endothelial growth factor receptor 3 (Homo sapiens) for CCN(CC)CCNC(=O)c1c(C)[nH]c2c1CCC/C2=C1/C(=O)Nc2ccc(F)cc21 [TAFETINIB] . 1.3 nM

###

molecular target: Mast/stem cell growth factor receptor Kit (Homo sapiens, UniProt P10721)
Sequence (P10721 whole entry): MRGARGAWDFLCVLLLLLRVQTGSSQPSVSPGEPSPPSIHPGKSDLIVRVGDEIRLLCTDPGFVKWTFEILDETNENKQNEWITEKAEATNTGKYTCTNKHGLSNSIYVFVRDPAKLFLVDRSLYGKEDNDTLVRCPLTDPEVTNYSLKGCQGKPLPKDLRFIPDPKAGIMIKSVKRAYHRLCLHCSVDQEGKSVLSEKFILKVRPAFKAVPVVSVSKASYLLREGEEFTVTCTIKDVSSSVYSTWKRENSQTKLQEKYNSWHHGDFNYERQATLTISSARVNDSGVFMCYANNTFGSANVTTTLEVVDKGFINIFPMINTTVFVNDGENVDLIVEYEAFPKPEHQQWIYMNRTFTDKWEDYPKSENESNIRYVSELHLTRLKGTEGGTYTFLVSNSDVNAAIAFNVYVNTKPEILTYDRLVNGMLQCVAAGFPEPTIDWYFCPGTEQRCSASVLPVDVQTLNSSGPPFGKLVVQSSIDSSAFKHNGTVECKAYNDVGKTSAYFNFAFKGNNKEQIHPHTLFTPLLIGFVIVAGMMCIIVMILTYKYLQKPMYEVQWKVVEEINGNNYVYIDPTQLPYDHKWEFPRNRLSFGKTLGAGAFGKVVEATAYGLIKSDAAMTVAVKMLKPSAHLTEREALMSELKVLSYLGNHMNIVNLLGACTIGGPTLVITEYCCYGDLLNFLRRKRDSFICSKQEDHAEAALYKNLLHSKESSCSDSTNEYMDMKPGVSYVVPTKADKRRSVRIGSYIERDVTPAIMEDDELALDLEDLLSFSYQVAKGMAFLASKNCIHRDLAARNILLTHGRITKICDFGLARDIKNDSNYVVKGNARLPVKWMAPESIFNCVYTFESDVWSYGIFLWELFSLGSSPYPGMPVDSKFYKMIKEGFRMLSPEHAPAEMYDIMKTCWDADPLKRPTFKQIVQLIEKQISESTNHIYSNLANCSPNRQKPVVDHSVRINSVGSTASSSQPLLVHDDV
Consider the following molecules and their measured pIC50 readings.
Note on pIC50: it is the negative log10 of concentration, concentration in mol/L.

{"Smiles notation": "CCN(CC)CCNC(=O)c1c(C)[nH]c2c1CCC/C2=C1/C(=O)Nc2c(F)cccc21", "Tested target": "Mast/stem cell growth factor receptor Kit (Homo sapiens, UniProt P10721)", "Reading": 6.74}
{"Smiles notation": "CCN(CC)CCNC(=O)c1c(C)[nH]c2c1CCC/C2=C1/C(=O)Nc2ccc(S(=O)(=O)N(CC)CC)cc21", "Tested target": "Mast/stem cell growth factor receptor Kit (Homo sapiens, UniProt P10721)", "Reading": 6.40}
{"Smiles notation": "Cc1[nH]c2c(c1C(=O)N1CCC(N3CCCCC3)CC1)CCC/C2=C1/C(=O)Nc2ccc(F)cc21", "Tested target": "Mast/stem cell growth factor receptor Kit (Homo sapiens, UniProt P10721)", "Reading": 8.11}
{"Smiles notation": "CCN(CC)CCNC(=O)c1c(C)[nH]c2c1CCC/C2=C1/C(=O)Nc2ccc(C(=O)OC)cc21", "Tested target": "Mast/stem cell growth factor receptor Kit (Homo sapiens, UniProt P10721)", "Reading": 6.59}
{"Smiles notation": "Cc1[nH]c2c(c1C(=O)N1CCOCC1)CCC/C2=C1/C(=O)Nc2ccc(F)cc21", "Tested target": "Mast/stem cell growth factor receptor Kit (Homo sapiens, UniProt P10721)", "Reading": 8.68}
{"Smiles notation": "Cc1[nH]c2c(c1C(=O)NCCN1CCOCC1)CCC/C2=C1/C(=O)Nc2ccc(F)cc21", "Tested target": "Mast/stem cell growth factor receptor Kit (Homo sapiens, UniProt P10721)", "Reading": 8.70}

Retrieve pIC50 measured for Cc1[nH]c2c(c1C(=O)NCCCN1CCCC1)CCC/C2=C1/C(=O)Nc2ccc(F)cc21 and print it. 7.97

Retrieve pIC50 measured for CCN(CC)CCNC(=O)c1c(C)[nH]c2c1CCC/C2=C1/C(=O)Nc2ccc([N+](=O)[O-])cc21 and print it. 8.16

Retrieve pIC50 measured for Cc1[nH]c2c(c1C(=O)NCCCN1CCOCC1)CCC/C2=C1/C(=O)Nc2ccc(F)cc21 and print it. 8.24

Retrieve pIC50 measured for Cc1[nH]c2c(c1C(=O)NCCN(C)C)CCC/C2=C1/C(=O)Nc2ccc(F)cc21 and print it. 8.18

###

Here we list compounds with their recorded pIC50 when tested on Vascular endothelial growth factor receptor 2 (Homo sapiens, UniProt P35968).
Sequence (P35968 whole entry): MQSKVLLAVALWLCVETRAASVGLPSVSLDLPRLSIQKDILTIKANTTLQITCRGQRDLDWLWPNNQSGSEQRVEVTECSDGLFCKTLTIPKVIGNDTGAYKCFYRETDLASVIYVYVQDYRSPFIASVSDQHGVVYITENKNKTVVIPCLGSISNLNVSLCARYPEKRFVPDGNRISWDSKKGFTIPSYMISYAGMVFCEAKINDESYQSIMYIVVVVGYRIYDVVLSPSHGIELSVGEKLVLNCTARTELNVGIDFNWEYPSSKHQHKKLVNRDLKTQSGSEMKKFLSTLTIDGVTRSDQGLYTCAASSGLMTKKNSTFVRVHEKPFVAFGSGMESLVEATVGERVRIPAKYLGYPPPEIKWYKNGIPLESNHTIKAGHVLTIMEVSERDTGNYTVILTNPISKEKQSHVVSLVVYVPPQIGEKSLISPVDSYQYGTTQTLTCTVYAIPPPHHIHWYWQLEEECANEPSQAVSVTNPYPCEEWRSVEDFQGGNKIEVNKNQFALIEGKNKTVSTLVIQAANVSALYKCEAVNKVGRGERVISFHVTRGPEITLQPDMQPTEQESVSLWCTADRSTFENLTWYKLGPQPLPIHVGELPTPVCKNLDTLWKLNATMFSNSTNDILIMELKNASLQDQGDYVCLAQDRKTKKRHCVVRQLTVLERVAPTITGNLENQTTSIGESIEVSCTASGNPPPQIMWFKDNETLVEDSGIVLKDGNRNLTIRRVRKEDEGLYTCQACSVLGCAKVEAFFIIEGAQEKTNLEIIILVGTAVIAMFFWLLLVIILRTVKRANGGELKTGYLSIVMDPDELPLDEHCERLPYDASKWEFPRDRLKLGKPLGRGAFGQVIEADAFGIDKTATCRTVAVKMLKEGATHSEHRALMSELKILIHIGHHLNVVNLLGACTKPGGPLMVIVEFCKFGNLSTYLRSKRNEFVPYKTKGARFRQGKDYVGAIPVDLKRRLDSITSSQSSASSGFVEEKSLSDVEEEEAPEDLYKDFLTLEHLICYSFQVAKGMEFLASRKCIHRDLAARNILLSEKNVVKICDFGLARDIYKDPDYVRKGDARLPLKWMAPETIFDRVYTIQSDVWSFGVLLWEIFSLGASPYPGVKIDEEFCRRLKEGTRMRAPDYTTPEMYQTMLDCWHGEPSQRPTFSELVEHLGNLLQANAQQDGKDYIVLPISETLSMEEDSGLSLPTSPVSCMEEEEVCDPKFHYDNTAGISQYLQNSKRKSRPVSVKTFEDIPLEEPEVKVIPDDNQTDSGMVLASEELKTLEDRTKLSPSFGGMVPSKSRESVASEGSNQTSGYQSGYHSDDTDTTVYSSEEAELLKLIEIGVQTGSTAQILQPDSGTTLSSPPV
Note on pIC50: it is the negative log10 of concentration, concentration in mol/L.

Examples from the recorded data:
{"Compound": "Cc1[nH]c2c(c1C(=O)NCCN1CCCC1)CCC/C2=C1/C(=O)Nc2ccc(F)cc21", "pIC50": 8.01}
{"Compound": "CCN(CC)CCNC(=O)c1c(C)[nH]c2c1CCC/C2=C1/C(=O)Nc2ccc(C)cc21", "pIC50": 8.64}
{"Compound": "Cc1[nH]c2c(c1C(=O)NCCN(C)C)CCC/C2=C1/C(=O)Nc2ccc(F)cc21", "pIC50": 8.52}
{"Compound": "Cc1[nH]c2c(c1C(=O)NCCc1ccccn1)CCC/C2=C1/C(=O)Nc2ccc(F)cc21", "pIC50": 7.94}
{"Compound": "Cc1[nH]c2c(c1C(=O)N1CCOCC1)CCC/C2=C1/C(=O)Nc2ccc(F)cc21", "pIC50": 8.96}
{"Compound": "Cc1[nH]c2c(c1C(=O)NCCN1CCCCC1)CCC/C2=C1/C(=O)Nc2ccc(F)cc21", "pIC50": 8.37}
{"Compound": "Cc1[nH]c2c(c1C(=O)NCCO)CCC/C2=C1/C(=O)Nc2ccc(F)cc21", "pIC50": 8.96}
{"Compound": "CCN(CC)CC(O)CNC(=O)c1c(C)[nH]c2c1CCC/C2=C1/C(=O)Nc2ccc(F)cc21 (centres undefined)", "pIC50": 8.60}

Retrieve pIC50 measured for CCN(CC)CCNC(=O)c1c(C)[nH]c2c1CCC/C2=C1/C(=O)Nc2ccc([N+](=O)[O-])cc21 and print it. 7.59
